Values from PubChem BioAssay AID1159580

- ASSAY_METHOD_TEXT: chemical genetic growth profiling, strain panel (AID 1159580);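 also: tested at 20 µM; growth read once vehicle control cultures reached saturation at 30 °C; 1 = growth at the plate median or of vehicle wells; lower values mean less growth of the strain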
- ASSAY_CONDITIONS: S. cerevisiae deletion strains, growth OD, locus YOR069W, strain VPS5, hits give low values
Out of some 5,500 compounds screened, about 2,000 (36%) were called active. Another 18% or so got no clear call; they are omitted. The list shows a part of the results.
PROPERTY_LABEL: normalized growth
Give a plain numeric answer without units written out.

Use the examples below as a reference point.
C=C1C(N)CC2CC1C2(C)C (centres undefined) :: 1.01
COc1ccc(-c2cc(=O)c3cc(OC)ccc3o2)cc1 :: 0.99
Cn1nnnc1SCC1=C(C(=O)O)N2C(=O)C(NC(=O)C(O)c3ccccc3)C2SC1 (centres undefined) :: 1.01
O=c1c(-c2ccccc2)coc2cc(O)cc(O)c12 :: 0.848
COc1ccc2cc3[n+](cc2c1OC)CCc1cc2c(cc1-3)OCO2 :: 0.731

Notebook: CSc1ccc2c(c1)C(N1CCN(C)CC1)Cc1ccccc1S2 (centres undefined) , normalized growth read as 1

Notebook: COc1ccc(-c2cc(=O)c3ccccc3o2)cc1OC , normalized growth read as 1.02

Notebook: C[N+]1(CCCCC[N+]2(C)CCCC2)CCCC1 , normalized growth read as 1

Notebook: O=c1[nH]c2cc(Cl)c(Cl)cc2[nH]c1=O , normalized growth read as 1.01

Notebook: COc1cc([C@@H]2c3cc4c(cc3C(O[C@@H]3O[C@@H]5CO[C@@H](c6cccs6)OC5[C@H](O)[C@H]3O)C3COC(=O)[C@@H]32)OCO4)cc(OC)c1O (some centres undefined) , normalized growth read as 1

Notebook: COc1cc(O)c2c(=O)c(-c3ccc(O)cc3)coc2c1 , normalized growth read as 0.94

Notebook: NCCc1ccc(O)c(O)c1 , normalized growth read as 0.998
